protocol-details: gradient 5% acetonitrile 3 min, to 50% in 2 min, to 85% in 15 min, held 3 min, 100 µL/min
measurement-context: column: Zorbax Extend-C18 2.1 x 50 mm; eluents: water / acetonitrile, 0.1% formic acid

>  <compound-structure-string>
O=C(c1cc(-c2ccccc2)n[nH]1)N1CC(c2nc(C3CC3)no2)C1

>  <RP-LC retention time>
711 s

$$$$
>  <compound-structure-string>
COc1ccc(C(=O)CSc2nnc(NC(=O)CN(C)S(C)(=O)=O)s2)cc1

>  <RP-LC retention time>
700 s

$$$$
>  <compound-structure-string>
COc1ccc(CNS(=O)(=O)c2ccc3c(c2)CCCC(=O)N3)cc1

>  <RP-LC retention time>
699 s

$$$$

###

RP-LC retention time values by entry
protocol-details: gradient 5% acetonitrile 3 min, to 50% in 2 min, to 85% in 15 min, held 3 min, 100 µL/min
measurement-context: column: Zorbax Extend-C18 2.1 x 50 mm; eluents: water / acetonitrile, 0.1% formic acid
value-kind: RP-LC retention time (s)

>  <compound>
COc1ccccc1CN[C@H]1CCCN[C@H]1c1ccccc1

>  <value-kind>
RP-LC retention time

>  <obs-value>
578

$$$$
>  <compound>
CCn1cc(S(=O)(=O)N2CCC(c3noc(-c4ccccc4)n3)C2)cn1 (configuration not stated)

>  <value-kind>
RP-LC retention time

>  <obs-value>
881

$$$$
>  <compound>
Cc1cc(C(=O)N2CC3CC(C2)c2cccc(=O)n2C3)c(C)o1 (configuration not stated)

>  <value-kind>
RP-LC retention time

>  <obs-value>
590

$$$$
>  <compound>
Cc1ccnc(Nc2nc(-c3cc(C)c(C)cc3C)cs2)c1

>  <value-kind>
RP-LC retention time

>  <obs-value>
953

$$$$
>  <compound>
CC(C)(C)c1noc(-c2ccc(-n3cnc(C(=O)NCc4ccc(F)cc4)c3)nc2)n1

>  <value-kind>
RP-LC retention time

>  <obs-value>
1330

$$$$
>  <compound>
Cc1cccc(S(=O)(=O)Nc2cccn3ncnc23)c1

>  <value-kind>
RP-LC retention time

>  <obs-value>
729

$$$$
>  <compound>
CCOC(=O)C1=C(C)NC(C)=C(C(=O)OCC)C1c1c(F)c(F)c(F)c(F)c1F

>  <value-kind>
RP-LC retention time

>  <obs-value>
1240

$$$$
>  <compound>
COc1ccc(CC(=O)Nc2c(-c3ccc(F)cc3)nc3ccccn23)cc1OC

>  <value-kind>
RP-LC retention time

>  <obs-value>
597

$$$$
>  <compound>
COc1cc(-c2nnc(-c3ccc(C)c(S(=O)(=O)N4CCCC4)c3)o2)cc(OC)c1OC

>  <value-kind>
RP-LC retention time

>  <obs-value>
986

$$$$
>  <compound>
CCOC(=O)c1nc(NCc2ccccc2Cl)c2ccccc2n1

>  <value-kind>
RP-LC retention time

>  <obs-value>
834

$$$$
>  <compound>
COc1cccc(NC(=O)c2c[nH]c3nc(C)ccc3c2=O)c1

>  <value-kind>
RP-LC retention time

>  <obs-value>
791

$$$$
>  <compound>
CCOc1nc2ccccc2nc1N1CCCC(C(=O)N2CCN(c3ccccc3F)CC2)C1 (configuration not stated)

>  <value-kind>
RP-LC retention time

>  <obs-value>
1330

$$$$

###

protocol-details: gradient 5% acetonitrile 3 min, to 50% in 2 min, to 85% in 15 min, held 3 min, 100 µL/min
measurement-context: column: Zorbax Extend-C18 2.1 x 50 mm; eluents: water / acetonitrile, 0.1% formic acid
Assign satisfied whenever RP-LC retention time does not fall below 700 s; assign not satisfied whenever it does.

>  <compound>
CC1CCN(C(=O)c2nnc(-c3ccc(S(=O)(=O)N4CCCCC4)cc3)o2)CC1

>  <label-class>
satisfied

$$$$
>  <compound>
Cc1cnc(C2CN(S(=O)(=O)c3cccc(F)c3)C2)n1CC1CC1

>  <label-class>
not satisfied

$$$$
>  <compound>
Cc1oc2ncnc(N3CCCC(C(=O)N4CCN(C5CCCCC5)CC4)C3)c2c1C (stereo not given)

>  <label-class>
satisfied

$$$$
>  <compound>
CNC(=O)[C@@H]1CN(C(=O)c2sc(C)nc2C)C[C@H]1c1n[nH]c(C)n1

>  <label-class>
not satisfied

$$$$
>  <compound>
Cc1ccc(Cl)cc1N1CCN(C(=O)c2[nH]c(C)c(S(=O)(=O)N3CCOCC3)c2C)CC1

>  <label-class>
satisfied

$$$$
>  <compound>
Cc1ccc(Oc2nccnc2N2CCCC(C(=O)N3CCN(c4cc(C)ccc4C)CC3)C2)cc1 (stereo not given)

>  <label-class>
satisfied

$$$$
>  <compound>
CC(NC(=O)c1ccc2nc(-c3ccc(Cl)cc3)cn2c1)c1ccccn1 (stereo not given)

>  <label-class>
not satisfied

$$$$
>  <compound>
Cc1nc(-c2ccccc2)nc2c1CCC(=O)N2Cc1cccnc1

>  <label-class>
not satisfied

$$$$
>  <compound>
Cc1ccc(S(=O)(=O)N2CCC3(CC2)NCCN=C3NCc2ccc(C(F)(F)F)cc2)cc1

>  <label-class>
satisfied

$$$$
>  <compound>
CCOc1ccccc1NC(=O)CN1c2ccc(F)cc2-c2ccccc2S1(=O)=O

>  <label-class>
satisfied

$$$$
>  <compound>
CSc1nnc(CCc2c(C)[nH]c(=O)[nH]c2=O)o1

>  <label-class>
not satisfied

$$$$
>  <compound>
Cc1ccc(-n2nc(N3CCN(C(=O)c4ccc(Br)o4)CC3)ccc2=O)cc1

>  <label-class>
satisfied

$$$$
>  <compound>
COc1cc(NC(=O)c2c(O)c3cccnc3n(-c3ccccc3)c2=O)cc(OC)c1

>  <label-class>
satisfied

$$$$
>  <compound>
CC(=O)c1cccc(NC(=O)CC2COc3ccccc3NC2=O)c1 (stereo not given)

>  <label-class>
not satisfied

$$$$

###

protocol-details: gradient 5% acetonitrile 3 min, to 50% in 2 min, to 85% in 15 min, held 3 min, 100 µL/min
measurement-context: column: Zorbax Extend-C18 2.1 x 50 mm; eluents: water / acetonitrile, 0.1% formic acid

>  <compound>
CC(C)CCNC(=O)c1ccc2c(=O)n(-c3ccc(F)cc3)c(N3CCCC3)nc2c1

>  <RP-LC retention time / s>
912

$$$$
>  <compound>
COc1ccc(-c2c(C)noc2NC(C)=O)cc1S(=O)(=O)NCCc1ccc(Cl)cc1

>  <RP-LC retention time / s>
894

$$$$
>  <compound>
CCn1cnc(S(=O)(=O)N2CCC(C(=O)NCCC3=CCCCC3)CC2)c1

>  <RP-LC retention time / s>
761

$$$$
>  <compound>
CCC(=O)N1CCCn2nc(-c3cccc(F)c3)cc2C1

>  <RP-LC retention time / s>
735

$$$$
>  <compound>
COc1ccc(-c2cc(C(=O)N3CCCC3c3cc(C)on3)on2)cc1 (stereo not given)

>  <RP-LC retention time / s>
865

$$$$
>  <compound>
COC(=O)c1ncoc1-c1ccccc1C(=O)N1CCCC1

>  <RP-LC retention time / s>
643

$$$$
>  <compound>
Cc1cc(-c2c(C)sc(C)c2S(=O)(=O)Nc2ccc(C)c(C)c2)n[nH]1

>  <RP-LC retention time / s>
1090

$$$$
>  <compound>
COc1ccc(-c2cc(C(=O)N3CCC(NC(=O)C4CCCC4)CC3)[nH]n2)cc1

>  <RP-LC retention time / s>
713

$$$$
>  <compound>
CCOc1ccc(N(CC)C(=O)c2nc(N(C)C)c3cnn(C)c3n2)cc1

>  <RP-LC retention time / s>
745

$$$$
>  <compound>
Cc1cc(Nc2nc(N[C@@H](C)c3ccc(F)cc3)c(C#N)cc2F)n[nH]1

>  <RP-LC retention time / s>
877

$$$$
>  <compound>
O=C1CCN(C(=O)c2ccco2)CCCC(CO)CCN1 (stereo not given)

>  <RP-LC retention time / s>
566

$$$$
>  <compound>
CCN1CCN(C(=O)c2cn(-c3cc(N4CCSCC4)ncn3)cn2)CC1

>  <RP-LC retention time / s>
605

$$$$
>  <compound>
O=C(NCCN1CCOCC1)C1=C2CCCN2c2ccc(F)cc2S1(=O)=O

>  <RP-LC retention time / s>
586

$$$$
>  <compound>
Fc1ccc(Nc2c(-c3ccccc3)nc3cnccn23)cc1

>  <RP-LC retention time / s>
844

$$$$
>  <compound>
COc1cc(OC)cc(C(=O)Nc2ccc3c(c2)Sc2ncccc2C(=O)N3C)c1

>  <RP-LC retention time / s>
858

$$$$
>  <compound>
COc1ccc(Cl)cc1S(=O)(=O)N(C)C1CCc2nn(CC3CC3)c(=O)n2CC1 (stereo not given)

>  <RP-LC retention time / s>
958

$$$$
>  <compound>
Cn1nc(N2CCC(NC(=O)C3CCCCC3)C2)ccc1=O (stereo not given)

>  <RP-LC retention time / s>
649

$$$$
>  <compound>
CNC(=O)[C@@H]1CN(C(=O)c2cc(C)no2)C[C@H]1COC

>  <RP-LC retention time / s>
558

$$$$
>  <compound>
Cc1ccsc1C(=O)NCCC1CCN(C(=O)Nc2cc(F)cc(F)c2)CC1

>  <RP-LC retention time / s>
915

$$$$
>  <compound>
O=C(c1ccccc1F)N1CCC(COCc2ccccc2)CC1

>  <RP-LC retention time / s>
945

$$$$
>  <compound>
CCOC(=O)c1ccc(NC(=O)Cn2c(C)nc3c(sc4nc(-c5ccccc5)ccc43)c2=O)cc1

>  <RP-LC retention time / s>
1100

$$$$
>  <compound>
COc1ccccc1-c1noc(Cn2cnc3c(cnn3-c3ccc(Br)cc3)c2=O)n1

>  <RP-LC retention time / s>
1060

$$$$
>  <compound>
O=C(CN1C(=O)C(C(=O)N2CCCC2)Sc2ccccc21)NCc1cccc(Br)c1 (stereo not given)

>  <RP-LC retention time / s>
972

$$$$
>  <compound>
CC(C)c1ccc(-c2csc(Nc3ccc(S(N)(=O)=O)cc3)n2)cc1

>  <RP-LC retention time / s>
1010

$$$$
>  <compound>
Cc1ccnc(Nc2nc(-c3cc(C)ccc3C)cs2)c1

>  <RP-LC retention time / s>
882

$$$$

Where do the numbers come from? From the METLIN SMRT retention time set (Domingo-Almenara et al. 2019).
